Tested on: J774 macrophages
assay-notes: Resazurin Macrophage J774 Viability Assay
Type: cell-based
condition-context: Mus musculus, J774; footnote (2): 12 point range 10 μM to 0.5 nM, n = 4 per concentration, GraphPad Prism; average of original and new experiments where replicates increased
measurement-kind: IC50 (nM)
Number in nM, nothing else.

Guide cases for IC50, answers given:
C[C@]1(O)CC[C@H](NS(=O)(=O)c2ccc(-c3ccc(Cl)cc3C#N)c(F)c2)CC1 [HMC-C-08-A]; 1250
C[C@]1(O)CC[C@@H](NS(=O)(=O)c2ccc(-c3cc(F)c(F)cc3F)cc2)CC1 [HMC-C-10-B]; 540
C[C@]1(O)CC[C@@H](NS(=O)(=O)c2ccc(-c3ccc(C#N)cc3)c(F)c2)CC1 [HMC-C-07-B]; 96
Cc1cc(S(=O)(=O)N[C@H]2CC[C@H](O)CC2)ccc1-c1ccc(F)cc1F [ABD735, reference compound]; 110
C[C@]1(O)CC[C@H](NS(=O)(=O)c2ccc(-c3ccc(C#N)cc3)c(F)c2)CC1 [HMC-C-07-A]; 1660

Let us examine a further case.
Query: Form entry - test system: J774 macrophages; read-out: IC50; compound: C[C@]1(O)CC[C@@H](NS(=O)(=O)c2ccc(-c3ccc(F)cc3F)cc2)CC1 [ABD899, reference compound]
Result: 210

###

assay-notes: Rodent Pharmacokinetics Studies
Type: in vivo, rat
condition-context: male, Han Wistar, rat, plasma, rats; footnote (1): 5% DMSO/10% solutol in saline for both routes
measurement-kind: half-life
Report field: quantity (unit follows the number).

Query: Form field: reported half-life of C[C@]1(O)CC[C@H](NS(=O)(=O)c2ccc(-c3ncc(Cl)cc3C#N)cc2)CC1
Result: 48 min

###

target-of-assay: CYP1A2 (Homo sapiens, UniProt P05177)
Construct: purchased Cypex Ltd, Dundee, Scotland UK
Sequence (P05177 whole entry): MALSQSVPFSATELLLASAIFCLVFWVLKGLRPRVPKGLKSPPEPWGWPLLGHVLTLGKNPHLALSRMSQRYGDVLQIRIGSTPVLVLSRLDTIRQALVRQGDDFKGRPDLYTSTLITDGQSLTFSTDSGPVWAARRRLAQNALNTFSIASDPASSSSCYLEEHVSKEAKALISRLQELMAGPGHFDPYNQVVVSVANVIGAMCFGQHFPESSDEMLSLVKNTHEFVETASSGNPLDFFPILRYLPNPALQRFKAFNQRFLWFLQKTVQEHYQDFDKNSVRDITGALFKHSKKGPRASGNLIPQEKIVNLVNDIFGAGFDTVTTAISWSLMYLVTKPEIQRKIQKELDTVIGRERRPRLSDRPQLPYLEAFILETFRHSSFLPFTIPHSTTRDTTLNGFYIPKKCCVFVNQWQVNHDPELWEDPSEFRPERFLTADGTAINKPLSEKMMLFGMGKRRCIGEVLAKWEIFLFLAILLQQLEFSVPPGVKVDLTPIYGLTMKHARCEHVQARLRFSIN
assay-notes: Human Cytochrome P450 Inhibition Assay (Bactosomes), CYP1A2
Type: in vitro ADME
condition-context: recombinant Bactosomes, probe substrate, 10 minutes at 37° C.
Measured IC50 accompanies every entry in the list below.
Number in µM, nothing else.

Guide cases for IC50, answers given:
C[C@]1(O)CC[C@H](NS(=O)(=O)c2ccc(-c3ncc(Cl)cc3C#N)cc2)CC1 [HMC-N-05-A]; 36
C[C@]1(O)CC[C@H](NS(=O)(=O)c2ccc(-c3ccc(Cl)cc3C#N)c(F)c2)CC1 [HMC-C-08-A]; 27

Let us examine a further case.
Query: Form field: reported IC50 of C[C@]1(O)CC[C@H](NS(=O)(=O)c2ccc(-c3ccc(C#N)cc3Cl)cc2)CC1 [HMC-C-09-A]
Result: 23

###

target-of-assay: CYP1A2 (Homo sapiens, UniProt P05177)
Construct: purchased Cypex Ltd, Dundee, Scotland UK
assay-notes: Human Cytochrome P450 Inhibition Assay (Bactosomes), CYP1A2
Format: in vitro ADME
condition-context: recombinant Bactosomes, probe substrate, 10 minutes at 37° C.
Description: The ability of test compounds to inhibit five of the most relevant cytochrome P450 enzymes was measured by determination of the activity of cytochrome P450 enzymes in recombinant cytochrome preparations, called Bactosomes (Cypex Ltd, Dundee, Scotland UK DD2 1NH), in the presence of a specific probe substrate. […] IC50 values were determined by linear transformation within Microsoft Excel.
measurement-kind: IC50

Guide cases for IC50, answers given:
C[C@]1(O)CC[C@H](NS(=O)(=O)c2ccc(-c3ccc(Cl)cc3C#N)c(Cl)c2)CC1; 11 µM
C[C@]1(O)CC[C@@H](NS(=O)(=O)c2ccc(-c3cc(F)c(F)cc3F)cc2)CC1; > 16 µM

Let us examine a further case.
Query: Form field: reported IC50 of C[C@]1(O)CC[C@@H](NS(=O)(=O)c2ccc(-c3ccc(C#N)cc3)c(F)c2)CC1
Result: > 50 µM
